# measurementTarget: T1, R &D hRGMc-His (human, UniProt Q6ZVN8 36-400)
# T1 construct: Bought (R&D) His-tagged human RGMc; also called human RGMc; not shown: His tag
# T1 sequence: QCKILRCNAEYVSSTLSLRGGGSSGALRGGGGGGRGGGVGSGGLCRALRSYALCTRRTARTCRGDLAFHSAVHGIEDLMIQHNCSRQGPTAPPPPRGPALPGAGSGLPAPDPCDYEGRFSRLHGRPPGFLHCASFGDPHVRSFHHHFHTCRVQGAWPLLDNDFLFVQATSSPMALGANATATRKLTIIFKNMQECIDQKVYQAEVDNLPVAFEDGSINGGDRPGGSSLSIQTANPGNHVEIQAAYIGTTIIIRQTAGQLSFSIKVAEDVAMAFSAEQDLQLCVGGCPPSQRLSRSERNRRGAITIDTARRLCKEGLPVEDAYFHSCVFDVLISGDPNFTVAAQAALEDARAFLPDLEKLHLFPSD
# measurementDescription: affinity KD as listed in Table 4; method not given
quantityName: pKd
Expect pKd as a plain number equal to -log10 of the molar concentration.

Check out these entries, answers already filled in.
{"binder": "h5F9.AM4 (antibody, V domains shown, also called RGMA-h5F9AM.4; RGMA-h5F9Vh7a/pJP29 1 hIgG1/K mut) VH: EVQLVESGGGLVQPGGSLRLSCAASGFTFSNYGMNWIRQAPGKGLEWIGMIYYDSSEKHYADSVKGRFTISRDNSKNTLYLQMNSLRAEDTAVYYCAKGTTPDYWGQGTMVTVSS VL: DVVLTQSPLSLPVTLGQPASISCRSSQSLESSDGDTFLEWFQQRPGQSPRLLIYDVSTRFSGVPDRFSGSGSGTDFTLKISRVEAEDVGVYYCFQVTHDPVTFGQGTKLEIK", "pKd": 9.92}
{"binder": "h5F9.AM11 (antibody, V domains shown, also called RGMA-h5F9AM; 11; RGMA-h5F9pJP302/pJP 303 hIgG1/K mut) VH: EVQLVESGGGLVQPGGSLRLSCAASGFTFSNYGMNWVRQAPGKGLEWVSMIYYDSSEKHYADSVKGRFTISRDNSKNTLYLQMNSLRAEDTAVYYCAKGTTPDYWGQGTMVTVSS VL: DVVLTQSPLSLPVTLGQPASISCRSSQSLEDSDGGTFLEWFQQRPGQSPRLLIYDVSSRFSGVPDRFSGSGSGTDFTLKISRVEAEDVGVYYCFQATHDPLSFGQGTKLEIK", "pKd": 9.60}
{"binder": "h5F9.AM9 (antibody, V domains shown, also called RGMA-h5F9AM.9; RGMA-h5F9pJP297/pJP 299 hIgG1/K mut) VH: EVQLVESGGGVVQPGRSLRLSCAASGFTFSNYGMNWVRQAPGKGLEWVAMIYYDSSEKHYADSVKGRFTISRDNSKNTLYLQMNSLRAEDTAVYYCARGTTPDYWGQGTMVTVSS VL: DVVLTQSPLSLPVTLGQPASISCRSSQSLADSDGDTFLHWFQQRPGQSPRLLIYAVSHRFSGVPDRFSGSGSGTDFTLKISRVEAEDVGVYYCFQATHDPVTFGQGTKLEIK", "pKd": 9.16}

Query binder follows.
Quick check: pKd of h5F9.AM8 (antibody, V domains shown, also called RGMA-h5F9AM.8; RGMA-h5F9pJP297/pJP 298 hIgG1/K mut) VH: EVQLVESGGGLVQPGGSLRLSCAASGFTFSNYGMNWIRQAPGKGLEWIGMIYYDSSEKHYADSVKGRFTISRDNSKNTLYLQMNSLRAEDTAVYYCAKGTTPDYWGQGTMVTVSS VL: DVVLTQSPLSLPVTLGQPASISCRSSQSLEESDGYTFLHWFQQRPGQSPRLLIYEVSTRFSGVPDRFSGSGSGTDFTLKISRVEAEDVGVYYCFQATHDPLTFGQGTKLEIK ?
10.10
